Catalogue of GI50 values
Tested on: M14
Assay: NCI tumour cell line growth inhibition, 48 h
Active and inactive are the calls of the source. Rule as the data show it: active = GI50 up to about 1.1 µM and inactive = higher.

compound: CC1(C)CCC[C@@]2(C)C1CC[C@@]1(CO)O[C@H](C3=CC(=O)OC3O)C[C@H]12 (stereo not given in full)
GI50: 11.8 µM (inactive)
--
compound: CC(C)=NOC(=O)Nc1cccc2c1OCO2
GI50: > 100 µM (inactive)
--
compound: CC(N)C(=O)OCN1C(=O)C2C3C=CC(C2C1=O)C1C2C(=O)N(COC(=O)C(C)N)C(=O)C2C31 (stereo not given)
GI50: 20.9 µM (inactive)
--
compound: COc1ccc(-c2c(C#N)c(N)nc(Sc3ccccc3N)c2C#N)cc1
GI50: 27.9 µM (inactive)
--
compound: Cc1c2c(c(O)c3c(O)cccc13)C(=O)C1(O)C(=O)C(C(=O)NCNc3ccc(C(N)=O)cn3)=C(O)C(N(C)C)C1C2 (stereo not given)
GI50: 3.63 µM (inactive)
